# Long-tern stability: Accuracy annotations
- Test Protocol: Stability of the analytes in rat plasma QC samples
- Type: in vitro ADME
- Condition Info: relative error, −20 °C for 21 d, high QC spiked concentration
Value Type: Long-tern stability: Accuracy (%)

- Compound: "O=c1cc(-c2ccc(O)c(O)c2)oc2cc(O)cc(O)c12"
  Endpoint Value: 5.43
- Compound: "C[C@@H]1O[C@@H](O[C@@H]2[C@@H](O)[C@H](OCCc3ccc(O)c(O)c3)O[C@H](CO)[C@H]2OC(=O)/C=C/c2ccc(O)c(O)c2)[C@H](O)[C@H](O)[C@H]1O [Acteoside, acteoside]"
  Endpoint Value: 6.94
- Compound: "C[C@@H]1O[C@@H](OC[C@H]2O[C@@H](Oc3c(-c4ccc(O)c(O)c4)oc4cc(O)cc(O)c4c3=O)[C@H](O)[C@@H](O)[C@@H]2O)[C@H](O)[C@H](O)[C@H]1O"
  Endpoint Value: 2.55
- Compound: "O=c1c(O)c(-c2ccc(O)c(O)c2)oc2cc(O)cc(O)c12"
  Endpoint Value: 6.02
- Compound: "COc1ccc(-c2cc(=O)c3c(O)cc(O)cc3o2)cc1"
  Endpoint Value: 3.46
- Compound: "O=c1cc(-c2ccc(O)cc2)oc2cc(O)cc(O)c12"
  Endpoint Value: 3.51

Measured values drawn from paper PMC9037101 for this set.
